- Tested System: GST-NbGlk1(82-244) (Nicotiana benthamiana)
- Chain: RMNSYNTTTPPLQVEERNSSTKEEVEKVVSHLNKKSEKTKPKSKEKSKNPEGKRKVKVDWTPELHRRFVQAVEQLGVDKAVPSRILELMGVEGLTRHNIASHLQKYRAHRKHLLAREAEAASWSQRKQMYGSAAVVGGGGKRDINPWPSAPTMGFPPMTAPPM
- Experiment Notes: protein-binding microarray; high values mean tight binding
- Condition Summary: protein: recombinant; tags: GST (pTH6838); dsDNA, one strand shown
Over roughly 16,000 sequences, “e-score” has its median near -0.044; the highest 2% begin near 0.38. What follows is part of a selection rich in the highest values, with near analogues and random picks from the rest.
Value Kind: binding signal

sequence_record=AACAAGAT reported_result="0.228 E-score"
sequence_record=ATCTATGA reported_result="0.247 E-score"
sequence_record=AAGATCTG reported_result="0.362 E-score"
sequence_record=CAGATCTA reported_result="0.249 E-score"
sequence_record=ATACGAAT reported_result="0.352 E-score"
sequence_record=AAGATCCG reported_result="0.332 E-score"
sequence_record=CAATCTGC reported_result="0.305 E-score"
sequence_record=AATATTCT reported_result="0.313 E-score"
sequence_record=ATCTGTCG reported_result="0.268 E-score"
sequence_record=AGGATCTG reported_result="0.337 E-score"
sequence_record=ATCATATC reported_result="0.329 E-score"
sequence_record=AAATCTGC reported_result="0.456 E-score"
sequence_record=AGATCTAA reported_result="0.303 E-score"
sequence_record=ATCCTATC reported_result="0.258 E-score"
sequence_record=AGCGGATA reported_result="0.27 E-score"
sequence_record=AATATTCC reported_result="0.341 E-score"
sequence_record=AATATTCG reported_result="0.258 E-score"
sequence_record=CAGATCCG reported_result="0.266 E-score"
sequence_record=CAGATTCC reported_result="0.473 E-score"
sequence_record=ATCTGCTA reported_result="0.331 E-score"
sequence_record=ATTCGAAA reported_result="0.208 E-score"
sequence_record=ATATAGAA reported_result="0.254 E-score"
sequence_record=AAGATCCC reported_result="0.333 E-score"
sequence_record=ATATGGAA reported_result="0.219 E-score"
sequence_record=ATCCGCCA reported_result="0.254 E-score"
sequence_record=AAGATTGC reported_result="0.443 E-score"
sequence_record=ATTTAGAA reported_result="0.279 E-score"
sequence_record=AAAATTCC reported_result="0.201 E-score"
sequence_record=ATATCTAA reported_result="0.417 E-score"
sequence_record=ATCTTCGC reported_result="0.237 E-score"
sequence_record=ATCGGATC reported_result="0.275 E-score"
sequence_record=ATCTGTTC reported_result="0.214 E-score"
sequence_record=AAATCAGG reported_result="0.365 E-score"
sequence_record=AGATCTGA reported_result="0.332 E-score"
sequence_record=AAGATTGG reported_result="0.206 E-score"
sequence_record=ATATATGG reported_result="0.224 E-score"
sequence_record=AAGATTCT reported_result="0.452 E-score"
sequence_record=AAGATCTA reported_result="0.356 E-score"
sequence_record=AATCGACT reported_result="0.263 E-score"
sequence_record=AAATCGGC reported_result="0.302 E-score"
sequence_record=ATCTCTAC reported_result="0.297 E-score"
sequence_record=ATCTCTAA reported_result="0.216 E-score"
sequence_record=ATCTCTAG reported_result="0.294 E-score"
sequence_record=AACGTAAT reported_result="0.361 E-score"
sequence_record=ATTTTACG reported_result="0.213 E-score"
sequence_record=ATATCTAG reported_result="0.392 E-score"

###

- Tested System: GST-NbGlk1(82-244) (Nicotiana benthamiana)
- Chain: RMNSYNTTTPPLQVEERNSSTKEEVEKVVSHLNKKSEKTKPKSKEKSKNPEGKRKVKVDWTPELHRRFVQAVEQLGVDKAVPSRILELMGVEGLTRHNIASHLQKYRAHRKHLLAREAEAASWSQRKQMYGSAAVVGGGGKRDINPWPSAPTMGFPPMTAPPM
- Experiment Notes: protein-binding microarray; high values mean tight binding
- Condition Summary: protein: recombinant; tags: GST (pTH6838); dsDNA, one strand shown
Over roughly 16,000 sequences, “e-score” has its median near -0.044; the highest 2% begin near 0.38. The full list was thinned out, with the highest values kept by preference.
Use t when the recorded binding signal is no lower than 0.3 E-score; use f when it is lower.

sequence_record=ATCAGAAG class=f
sequence_record=ACGGAAAT class=t
sequence_record=ATTATATA class=f
sequence_record=ATCGGAAA class=f
sequence_record=CAATCAAA class=f
sequence_record=ACAGATTG class=t
sequence_record=AGGGGATC class=t
sequence_record=AGATCGGA class=f
sequence_record=ATCCAGCC class=f
sequence_record=ATCTCGCC class=t
sequence_record=ACGGAATC class=t
sequence_record=AGAGATTG class=t
sequence_record=AAAACTTA class=f
sequence_record=AAGGAATC class=t
sequence_record=ACGGAATA class=f
sequence_record=AGGGAATC class=t
sequence_record=ATCGATAC class=f
sequence_record=ATCCCCGC class=f
sequence_record=AAGGAAAT class=t
sequence_record=ACAGATTA class=t

###

The reader will find reported binding signal values listed item by item below.
- Tested System: GST-NbGlk1(82-244) (Nicotiana benthamiana)
- Chain: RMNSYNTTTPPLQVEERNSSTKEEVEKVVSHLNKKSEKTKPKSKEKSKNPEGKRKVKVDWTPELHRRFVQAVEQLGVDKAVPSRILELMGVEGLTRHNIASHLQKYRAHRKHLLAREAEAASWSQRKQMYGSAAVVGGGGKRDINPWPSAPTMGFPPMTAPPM
- Experiment Notes: protein-binding microarray; high values mean tight binding
- Condition Summary: protein: recombinant; tags: GST (pTH6838); dsDNA, one strand shown
The full ranking holds about 16,000 sequences; the median of “e-score” is about -0.044, and the highest 2% start at about 0.38. The sample holds the highest values, similar sequences and a random draw of the others, so the mix is not that of the screen.
Value Kind: binding signal (E-score)

sequence_record=ATTTCAGA quantity_unit=E-score reported_result=0.265
sequence_record=AGATTTGG quantity_unit=E-score reported_result=0.394
sequence_record=AACGTATC quantity_unit=E-score reported_result=0.322
sequence_record=ATCTTCAC quantity_unit=E-score reported_result=0.352
sequence_record=CAAATTCA quantity_unit=E-score reported_result=0.203
sequence_record=AAAATCTC quantity_unit=E-score reported_result=0.453
sequence_record=AACGTATA quantity_unit=E-score reported_result=0.225
sequence_record=CAAATCAG quantity_unit=E-score reported_result=0.268
sequence_record=AAATAAAT quantity_unit=E-score reported_result=0.24
sequence_record=AAATTTAT quantity_unit=E-score reported_result=0.22
sequence_record=CAAATCCA quantity_unit=E-score reported_result=0.379
sequence_record=AAAATCCT quantity_unit=E-score reported_result=0.433
sequence_record=AATATTTA quantity_unit=E-score reported_result=0.216
sequence_record=ATACGCAT quantity_unit=E-score reported_result=0.204
sequence_record=CAAGATCC quantity_unit=E-score reported_result=0.33
sequence_record=AAAATCAG quantity_unit=E-score reported_result=0.381
sequence_record=ATAATCCC quantity_unit=E-score reported_result=0.212
sequence_record=ATTGCATG quantity_unit=E-score reported_result=0.221
sequence_record=AAAATCCC quantity_unit=E-score reported_result=0.41
sequence_record=ATCTTGTG quantity_unit=E-score reported_result=0.318
sequence_record=ATCCGTTA quantity_unit=E-score reported_result=0.315
sequence_record=AATCAGTA quantity_unit=E-score reported_result=0.268

###

The reader will find reported binding signal values listed item by item below.
- Tested System: GST-NbGlk1(82-244) (Nicotiana benthamiana)
- Chain: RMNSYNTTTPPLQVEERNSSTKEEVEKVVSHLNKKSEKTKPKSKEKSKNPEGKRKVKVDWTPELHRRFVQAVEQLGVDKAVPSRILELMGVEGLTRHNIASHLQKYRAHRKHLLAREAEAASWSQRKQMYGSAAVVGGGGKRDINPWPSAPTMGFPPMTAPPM
- Experiment Notes: protein-binding microarray; NbGlk1 is a Golden2-like transcription factor of Nicotiana benthamiana; high values mean tight binding
- Condition Summary: protein: recombinant; tags: GST (pTH6838); dsDNA, one strand shown
In all, about 16,000 sequences were measured (“e-score”: median about -0.044, highest 2% from about 0.38 on). Only a selection was taken, and the highest values are over-represented in it overall.
Value Kind: binding signal (E-score)

sequence_record=AAAATTTC tested_system="GST-NbGlk1(82-244) (Nicotiana benthamiana)" value_kind="binding signal" reported_result=0.276
sequence_record=AATCCATT tested_system="GST-NbGlk1(82-244) (Nicotiana benthamiana)" value_kind="binding signal" reported_result=0.38
sequence_record=AAGATTTC tested_system="GST-NbGlk1(82-244) (Nicotiana benthamiana)" value_kind="binding signal" reported_result=0.477
sequence_record=ATCGTATC tested_system="GST-NbGlk1(82-244) (Nicotiana benthamiana)" value_kind="binding signal" reported_result=0.36
sequence_record=ACGATTTC tested_system="GST-NbGlk1(82-244) (Nicotiana benthamiana)" value_kind="binding signal" reported_result=0.411
sequence_record=CAGATTTA tested_system="GST-NbGlk1(82-244) (Nicotiana benthamiana)" value_kind="binding signal" reported_result=0.276
sequence_record=ATCCGCCG tested_system="GST-NbGlk1(82-244) (Nicotiana benthamiana)" value_kind="binding signal" reported_result=0.216
sequence_record=ATTCCATA tested_system="GST-NbGlk1(82-244) (Nicotiana benthamiana)" value_kind="binding signal" reported_result=0.257
sequence_record=AATCCATC tested_system="GST-NbGlk1(82-244) (Nicotiana benthamiana)" value_kind="binding signal" reported_result=0.367
sequence_record=AATCCATA tested_system="GST-NbGlk1(82-244) (Nicotiana benthamiana)" value_kind="binding signal" reported_result=0.379
sequence_record=AATCCCAT tested_system="GST-NbGlk1(82-244) (Nicotiana benthamiana)" value_kind="binding signal" reported_result=0.331
